testedTarget: Mu-type opioid receptor (Cavia porcellus)
procedureDetails: Inhibition of [3H]DAMGO binding to Opioid receptor mu 1 from guinea pig brain membranes
Parameters: concentration or dose not given beside the values
testParameters: concentration not given here
Quick reference for inhibition among some molecules
observationType: inhibition

structuresmiles=CNCC[C@H]1CC2CN3CCc4c([nH]c5ccccc45)[C@](C(=O)OC)(C2)[C@H]13 observationtype=inhibition recordedresult=24%
structuresmiles=COCCNC(=O)[C@@]12CC3C[C@H](CCOC)[C@@H]1N(CCc1c2[nH]c2ccccc12)C3 observationtype=inhibition recordedresult=10%
structuresmiles=COCC[C@H]1CC2CN3CCc4c([nH]c5ccccc45)[C@](C(=O)NCCN(C)C)(C2)[C@H]13 observationtype=inhibition recordedresult=4%
structuresmiles=COCC[C@H]1CC2CN3CCc4c([nH]c5ccccc45)[C@](C(=O)OC)(C2)[C@H]13 observationtype=inhibition recordedresult=50%
